All figures here come from patent US20040018971A1.

tested system: HLA-A*3101 (human)
test summary: inhibition of 125I probe peptide binding to purified HLA
Give pIC50 for every item shown.
Formally, pIC50 is defined as -log10 of the concentration c, with c in mol/L.

Tell me its pIC50 given IVWKDIFHR (synthetic analog peptide) [Her2/neu.167.V2R9] as the entry.
8.22

Tell me its pIC50 given VVFGILIKR (synthetic peptide; the 9-mer and the 10-mer carry the same source label Her2/neu.669) [Her2/neu.669 (AA 9)] as the entry.
7.89

Tell me its pIC50 given ILKGGVLIQR (synthetic peptide) [Her2/neu.148] as the entry.
7.60

Tell me its pIC50 given TILWKDIFHK (synthetic peptide) [Her2/neu.166] as the entry.
6.31

Tell me its pIC50 given QLRSLTEILK (synthetic peptide) [Her2/neu.141] as the entry.
6.18

Tell me its pIC50 given IVWLGLRSLR (synthetic analog peptide) [Her2/neu.450.V2] as the entry.
7.96

Tell me its pIC50 given IVKGGVLIQK (synthetic analog peptide) [Her2/neu.148.V2K10] as the entry.
6.35

Tell me its pIC50 given HTVPWDQLFR (synthetic peptide) [Her2/neu.478] as the entry.
7.72
